From: PubChem BioAssay (NCI)

Test system: SK-MEL-28 melanoma
assay_procedure: NCI tumour cell line growth inhibition, 48 h
Form field: TGI (one value per entry).
Kindly provide the numeric value in µM only, without the unit symbol.

(Q) Returns the measured TGI for the input molecule. Input: Cn1cc(-c2cc(-c3cn(C)c4ccc(Cl)cc34)[nH]n2)c2cc(Cl)ccc21
(A) 79.6

(Q) Request the reported TGI associated with CC(O)c1cc2c(s1)C(=O)c1c(C(C)O)csc1C2=O (centres undefined)
(A) 0.466

(Q) Give the measured TGI of CN(C)CCCOc1cccc(NC2=C(Cl)C(=O)C(Nc3cccc(OCCCN(C)C)c3)=C(Cl)C2=O)c1 .
(A) 3.16

(Q) // TGI lookup, key: COc1ccc2c(c1)C(=O)/C(=C/c1cccc(OCC(=O)Nc3nc(C)c(C)s3)c1)O2
(A) 1.72

(Q) Please give the measured TGI for this molecule: COc1cc(C(=O)Oc2c(C(C)=O)sc3c2c(=O)n(-c2ccccc2)c(=S)n3-c2ccccc2)cc(OC)c1OC
(A) 49.5
